MEASUREMENT_DESCRIPTION: in vitro
CONDITION_SET: human, liver microsomes
Each entry below lists one item and its recorded microsomal CLint at 50 min, 3 µM value.
MEASUREMENT_NAME: microsomal CLint at 50 min, 3 µM (µL/min/mg)

1) C=CC(=O)Nc1cccc(Nc2nc(Nc3ccc(N4CCN(C(C)=O)CC4)cc3OC)ncc2C(F)(F)F)c1 :: 5.1
2) C=CC(=O)N1CCC[C@@H](n2nc(-c3cccc(C(F)(F)F)c3)c3c(N)ncnc32)C1 :: 578
3) C=CC(=O)N1CCC[C@@H](n2nc(-c3cn(C)c4ccccc34)c3c(N)ncnc32)C1 :: 462
4) C=CC(=O)N1CCC[C@@H](n2nc(-c3cccc4ccccc34)c3c(N)ncnc32)C1 :: 770
5) C=CC(=O)N1CCC[C@@H](n2nc(-c3ccc4ccccc4c3)c3c(N)ncnc32)C1 :: 770
6) C=CC(=O)N1CCC[C@@H](n2nc(-c3ccccc3)c3c(N)ncnc32)C1 :: 122
7) C=CC(=O)N1CCC[C@@H](n2nc(-c3cnc4[nH]ccc4c3)c3c(N)ncnc32)C1 :: 108
8) C=CC(=O)Nc1cc(Nc2nccc(-c3cn(C)c4ccccc34)n2)c(OC)cc1N(C)CCN(C)C :: 4.1

====

MEASUREMENT_DESCRIPTION: AUC in RjOrl:SWISS (CD1) mouse plasma at 20 mg/kg, po administered via gavage
Format: ADME, organism-based
MEASUREMENT_NAME: AUC (ng·h/mL)

1) C=CC(=O)N1CCC[C@@H](n2nc(-c3cn(C)c4ccccc34)c3c(N)ncnc32)C1 :: 29

====

MEASUREMENT_DESCRIPTION: AUC in RjOrl:SWISS (CD1) mouse plasma at 20 mg/kg, ip
Assay type: ADME, organism-based
MEASUREMENT_NAME: AUC

1) C=CC(=O)N1CCC[C@@H](n2nc(-c3cn(C)c4ccccc34)c3c(N)ncnc32)C1 :: 1890 ng·h/mL

====

MEASUREMENT_DESCRIPTION: Total Cmax in RjOrl:SWISS (CD1) mouse plasma at 20 mg/kg, ip
Type: ADME, organism-based
Set-up: dose 20 mg/kg, route intraperitoneal
MEASUREMENT_NAME: Cmax (ng/mL)

1. C=CC(=O)N1CCC[C@@H](n2nc(-c3cn(C)c4ccccc34)c3c(N)ncnc32)C1 :: 4540

====

The following compounds each carry a recorded pIC50 for Epidermal growth factor receptor (Homo sapiens).
pIC50: −log10 of the molar value.
MEASUREMENT_NAME: pIC50

1) C=CC(=O)N1CCC[C@@H](n2nc(C#CCC3CCCC3)c3c(N)ncnc32)C1 :: 6.12
2) C=CC(=O)N1CCC[C@@H](n2nc(C3CC3)c3c(N)ncnc32)C1 :: 6.15
3) C=CC(=O)N1CCC[C@@H](n2nc(-c3ccc(F)cc3)c3c(N)ncnc32)C1 :: 6.89
4) C=CC(=O)N1CCC[C@@H](n2nc(-c3cn(C)c4ccccc34)c3c(N)ncnc32)C1 :: 7.40
5) C=CC(=O)N1CCC[C@@H](n2nc(-c3cccc(F)c3)c3c(N)ncnc32)C1 :: 6.89
6) C=CC(=O)N1CCC[C@@H](n2nc(-c3cnc4[nH]ccc4c3)c3c(N)ncnc32)C1 :: 8.00
7) C=CC(=O)N1CCC[C@@H](n2nc(-c3ccc(N(C)C)c4ccccc34)c3c(N)ncnc32)C1 :: 6.09
8) CN(C)C/C=C/C(=O)N1CCC[C@@H](n2nc(-c3ccccc3)c3c(N)ncnc32)C1 :: 5.52

====

Each entry below lists one item and its recorded Papp A→B at 2 h, 5 µM value.
MEASUREMENT_DESCRIPTION: Apparent permeability across apical to basolateral side in human Caco2 cells at 5 uM incubated for 2 hrs
Type: ADME, cell-based, Caco-2
CONDITION_SET: Caco-2
MEASUREMENT_NAME: Papp A→B at 2 h, 5 µM

1. C=CC(=O)N1CCC[C@@H](n2nc(-c3cn(C)c4ccccc34)c3c(N)ncnc32)C1 :: 0.3 ×10⁻⁶ cm/s
2. C=CC(=O)Nc1cc(Nc2nccc(-c3cn(C)c4ccccc34)n2)c(OC)cc1N(C)CCN(C)C :: 0.084 ×10⁻⁶ cm/s
3. C=CC(=O)N1CCC[C@@H](n2nc(-c3ccc4ccccc4c3)c3c(N)ncnc32)C1 :: 0.51 ×10⁻⁶ cm/s
4. C=CC(=O)Nc1cccc(Nc2nc(Nc3ccc(N4CCN(C(C)=O)CC4)cc3OC)ncc2C(F)(F)F)c1 :: 0.05 ×10⁻⁶ cm/s

====

Test system: A-431;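 note: antiproliferative effect on cells bearing wild-type EGFR, 96 h exposure, viability read by CellTiter-Glo luminescence on day 5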
MEASUREMENT_DESCRIPTION: cells
Format: ADME, cell-based
CONDITION_SET: Homo sapiens
Description: Antiproliferative activity against human A431 cells expressing wild type EGFR incubated for 96 hrs measured on day 5 by CellTiterGlo assay
The threshold is 10 µM. Values of EC50 beneath it are tagged true; values meeting or exceeding it are tagged false.

1. C=CC(=O)N1CCC[C@@H](n2nc(-c3ccc(Oc4ccccc4)cc3)c3c(N)ncnc32)C1 :: true
2. C=CC(=O)N1CCC[C@@H](n2nc(-c3cn(C)c4ccccc34)c3c(N)ncnc32)C1 :: true
3. C=CC(=O)N1CCC[C@@H](n2nc(-c3cccc(F)c3)c3c(N)ncnc32)C1 :: false
4. C=CC(=O)N1CCC[C@@H](n2nc(-c3ccc(C(F)(F)F)cc3)c3c(N)ncnc32)C1 :: true
5. C=CC(=O)N1CCC[C@@H](n2nc(-c3cnc4[nH]ccc4c3)c3c(N)ncnc32)C1 :: true
6. C=CC(=O)N1CCC[C@@H](n2nc(-c3ccccc3)c3c(N)ncnc32)C1 :: false
7. C=CC(=O)N1CCC[C@@H](n2nc(-c3ccc4ccccc4c3)c3c(N)ncnc32)C1 :: true
8. C=CC(=O)N1CCC[C@@H](n2nc(C3CC3)c3c(N)ncnc32)C1 :: false
9. C=CC(=O)N1CCC[C@@H](n2nc(C#CCC3CCCC3)c3c(N)ncnc32)C1 :: true
10. CN(C)C/C=C/C(=O)N1CCC[C@@H](n2nc(-c3ccccc3)c3c(N)ncnc32)C1 :: false
11. CN(C)C/C=C/C(=O)N1CCC[C@@H](n2nc(-c3cccc(C(F)(F)F)c3)c3c(N)ncnc32)C1 :: false
12. C=CC(=O)N1CCC[C@@H](n2nc(-c3ccc(F)c4ccccc34)c3c(N)ncnc32)C1 :: false
13. C#Cc1nn([C@@H]2CCCN(C(=O)C=C)C2)c2ncnc(N)c12 :: false
14. C=CC(=O)N1CCC[C@@H](n2nc(-c3cccc4ccccc34)c3c(N)ncnc32)C1 :: false
15. C=CC(=O)N1CCC[C@@H](n2nc(-c3ccc(N(C)C)c4ccccc34)c3c(N)ncnc32)C1 :: false
16. C=CC(=O)N1CCC[C@@H](n2nc(Cc3ccccc3)c3c(N)ncnc32)C1 :: false
17. CN(C)C/C=C/C(=O)Nc1cc2c(Nc3ccc(F)c(Cl)c3)ncnc2cc1O[C@H]1CCOC1 :: true
18. C=CC(=O)N1CCC[C@@H](n2nc(C#CC3CCCC3)c3c(N)ncnc32)C1 :: false
19. C=CC(=O)N1CCC[C@@H](n2nc(-c3cccc(C(F)(F)F)c3)c3c(N)ncnc32)C1 :: false
20. C=CC(=O)N1CCC[C@@H](n2nc(-c3ccc(O)cc3)c3c(N)ncnc32)C1 :: true

====

MEASUREMENT_DESCRIPTION: Volume of distribution at steady state in RjOrl:SWISS (CD1) mouse plasma at 2 mg/kg, iv
Type: ADME, organism-based
CONDITION_SET: read-out: Vdss
MEASUREMENT_NAME: Vd (L/kg)

1. C=CC(=O)N1CCC[C@@H](n2nc(-c3cn(C)c4ccccc34)c3c(N)ncnc32)C1 :: 12.4

====

MEASUREMENT_DESCRIPTION: Cmax in RjOrl:SWISS (CD1) mouse plasma at 20 mg/kg, po administered via gavage
Assay type: ADME, organism-based
Design: dose 20 mg/kg, route oral
MEASUREMENT_NAME: Cmax (ng/mL)

1) C=CC(=O)N1CCC[C@@H](n2nc(-c3cn(C)c4ccccc34)c3c(N)ncnc32)C1 :: 38

====

MEASUREMENT_DESCRIPTION: Metabolic stability in mouse plasma at 5 uM incubated for 1 hr by LC-MS method
Assay type: ADME, cell-free
CONDITION_SET: read-out: Stability
Each entry below lists one item and its recorded remaining at 1 h, 5 µM value.
MEASUREMENT_NAME: remaining at 1 h, 5 µM (%)

1. C=CC(=O)N1CCC[C@@H](n2nc(-c3cnc4[nH]ccc4c3)c3c(N)ncnc32)C1 :: 96
2. C=CC(=O)N1CCC[C@@H](n2nc(-c3ccccc3)c3c(N)ncnc32)C1 :: 91
3. C=CC(=O)N1CCC[C@@H](n2nc(-c3ccc(Oc4ccccc4)cc3)c3c(N)ncnc32)C1 :: 96
4. C=CC(=O)N1CCC[C@@H](n2nc(-c3cccc(C(F)(F)F)c3)c3c(N)ncnc32)C1 :: 99
5. C=CC(=O)Nc1cc(Nc2nccc(-c3cn(C)c4ccccc34)n2)c(OC)cc1N(C)CCN(C)C :: 100
6. C=CC(=O)N1CCC[C@@H](n2nc(-c3cccc4ccccc34)c3c(N)ncnc32)C1 :: 90
7. C=CC(=O)N1CCC[C@@H](n2nc(-c3cn(C)c4ccccc34)c3c(N)ncnc32)C1 :: 100
8. C=CC(=O)Nc1cccc(Nc2nc(Nc3ccc(N4CCN(C(C)=O)CC4)cc3OC)ncc2C(F)(F)F)c1 :: 75
9. C=CC(=O)N1CCC[C@@H](n2nc(-c3ccc4ccccc4c3)c3c(N)ncnc32)C1 :: 86
